Overview of recorded pIC50 for various compounds
- target of assay: RON (human) (Homo sapiens)
- Sequence (Q04912 25-1400): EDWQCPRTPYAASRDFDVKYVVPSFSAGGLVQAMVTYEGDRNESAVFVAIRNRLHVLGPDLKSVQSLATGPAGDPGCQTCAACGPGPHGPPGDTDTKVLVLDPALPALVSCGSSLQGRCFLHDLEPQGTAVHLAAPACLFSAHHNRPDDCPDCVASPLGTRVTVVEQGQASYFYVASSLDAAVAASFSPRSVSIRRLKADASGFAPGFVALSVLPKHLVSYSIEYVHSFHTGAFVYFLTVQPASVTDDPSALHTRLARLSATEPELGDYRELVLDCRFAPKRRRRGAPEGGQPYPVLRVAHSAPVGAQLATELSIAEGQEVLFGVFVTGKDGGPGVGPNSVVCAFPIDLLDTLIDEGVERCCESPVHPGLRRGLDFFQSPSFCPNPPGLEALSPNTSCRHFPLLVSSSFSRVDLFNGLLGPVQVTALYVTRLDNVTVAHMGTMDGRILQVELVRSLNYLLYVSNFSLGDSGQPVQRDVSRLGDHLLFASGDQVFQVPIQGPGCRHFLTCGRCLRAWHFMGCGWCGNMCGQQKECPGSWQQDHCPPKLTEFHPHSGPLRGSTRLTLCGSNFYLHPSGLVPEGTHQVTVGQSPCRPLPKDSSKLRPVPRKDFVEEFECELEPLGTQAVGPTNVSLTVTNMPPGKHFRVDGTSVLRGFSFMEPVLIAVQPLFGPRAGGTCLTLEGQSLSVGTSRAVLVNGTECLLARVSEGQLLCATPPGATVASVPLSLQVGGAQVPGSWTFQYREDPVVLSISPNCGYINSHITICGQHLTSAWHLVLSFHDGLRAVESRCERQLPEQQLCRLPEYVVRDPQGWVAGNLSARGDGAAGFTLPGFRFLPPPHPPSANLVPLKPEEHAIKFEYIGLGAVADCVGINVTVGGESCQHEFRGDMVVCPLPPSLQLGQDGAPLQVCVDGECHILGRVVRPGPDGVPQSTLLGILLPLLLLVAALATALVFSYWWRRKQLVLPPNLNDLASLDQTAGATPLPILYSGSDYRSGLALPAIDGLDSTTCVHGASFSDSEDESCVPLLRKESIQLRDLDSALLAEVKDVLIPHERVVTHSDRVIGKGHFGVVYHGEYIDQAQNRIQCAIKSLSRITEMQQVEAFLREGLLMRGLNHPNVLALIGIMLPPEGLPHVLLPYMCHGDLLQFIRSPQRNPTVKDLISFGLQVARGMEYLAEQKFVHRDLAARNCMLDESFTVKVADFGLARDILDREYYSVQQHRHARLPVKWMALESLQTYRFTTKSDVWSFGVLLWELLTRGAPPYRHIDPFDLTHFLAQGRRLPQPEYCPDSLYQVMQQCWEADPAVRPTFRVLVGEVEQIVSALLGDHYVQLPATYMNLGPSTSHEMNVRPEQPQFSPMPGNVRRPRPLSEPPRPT
- assay comment: RON (human) AlphaScreen kinase assay, Km of ATP
- Format: biochemical
- test conditions: AlphaScreen, Km of ATP; read-out: RON biochemical IC50
pIC50: −log10 of the molar value.

compound	pIC50
C[C@@H](Oc1c(N)ncc2c(-c3cccc(O)c3)coc12)c1c(Cl)ccc(F)c1Cl [Example 128]	5.30 to 6.30
C[C@@H](Oc1c(N)ncc2c(-c3ccc(NC(N)=O)cc3)coc12)c1c(Cl)ccc(F)c1Cl [Example 108]	5.30 to 6.30
C[C@@H](Oc1c(N)ncc2c(C3=CCN(Cc4ccccc4)CC3)coc12)c1c(Cl)ccc(F)c1Cl [Example 39]	5.30 to 6.30

As a next step, examine the compound that follows.
Name the reported pIC50 value associated with the compound C[C@@H](Oc1c(N)ncc2c(-c3cnn(C4CCNCC4)c3)coc12)c1ccncc1 [Example 397]
5.30 to 6.30
